Data provenance is PubChem BioAssay.

# z-score per entry
test: MELAS cybrid and Rieske KO viability enhancers – cell-based, MELAS cybrids, Rieske KO mouse fibroblasts, CellTiter-Glo, primary screen (AID 1508586); conditions: MELAS cybrid survival, low glucose, CellTiter-Glo 48 h; active compounds read high;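 also: test concentration not given here; z relative to plate mean and SD of compound and empty wells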
Enter the number alone.

The cases that follow already have their z-score on record.
# molecule, readout-value
records = [
    ("Nc1ncc(Cc2ccccc2)s1", -0.355),
    ("COc1cc(C(C)=O)ccc1O", -0.427),
    ("O=C(c1nn(Cc2ccccn2)c2c1CN(C/C=C/c1ccco1)CC2)N1CCc2ccccc2C1", -0.442),
]

Please give the documented z-score of O=C(c1ccnc(Cl)c1)N1CCc2[nH]nc(C3CCC3)c2C1
-0.36

Fill in reported z-score for this entry: CCCCNC(=O)[C@@H]1C[C@H](CN2CCOCC2)CN(CCc2ccccc2)C1
1.78

Quick one: give measured z-score for CC(CCC(=O)O)[C@@H]1CC[C@H]2[C@@H]3C(O)C[C@@H]4CC(O)CC[C@]4(C)[C@@H]3CC[C@]12C (some centres not stated)
-0.242
